Assay: NCI Yeast Anticancer Drug Screen. Data for the sgs1 mgt1 strain (AID 161);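 also: 0% = growth of cultures given vehicle only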
Conditions: S. cerevisiae sgs1 mgt1 strain, at 50.0 µM, hits give high values
Experimental: Growth inhibition of yeast strains with defined genetic alterations is measured as a screen for potential anti-cancer activity. Selected strains with alterations in DNA damage repair or cell cycle control were exposed to compounds and growth inhibition was measured relative to vehicle treated controls. The strain used in this assay is sgs1 mgt1
Compounds without any hit were thinned out: in the full panel of roughly 79,000, 15% have a hit.
propertyMeasured: growth inhibition (%)
Give bare numbers, in %.

Cc1ccc(N=C2SC(c3ccc(C)cc3)(c3ccc(C)cc3)c3ccccc32)cc1 :: -3.9
CC1(C)C=C(C(Cl)c2ccccc2)C(=O)c2ccccc21 (stereo not given) :: 0
O=[n+]1c(-c2ccccc2)c(-c2ccccc2)n([O-])c2cc3ccccc3cc21 :: 12.2

Answer for every listed entry: what is its growth inhibition? The entries follow.
1. Cc1cc(S(=O)(=O)Nc2n[nH]c(Nc3ccccc3)n2)c(S)cc1Cl
2. CCCCCCCCCCCCCCCOc1cc(OC)ccc1-c1nnc(SC)s1
3. O=C(ON(Cc1ccccc1)Cc1ccccc1)c1ccccc1
4. OC1C(OCc2ccccc2)OC(COCc2ccccc2)C(OC2OC(COCc3ccccc3)C(OCc3ccccc3)C(OCc3ccccc3)C2OCc2ccccc2)C1OCc1ccccc1 (stereo not given)
5. CCOC(=O)C(C)(C(=O)OCC)n1cnc2c1c(=O)n(C)c(=O)n2C

-13.8
-24.1
20.4
-13.8
-12.6

Provide the reported growth inhibition of each entry below, same order.
1. CC(=Nc1ccc(Cl)c(Cl)c1)c1ccncc1
2. CN(C)CC1CCC(CN(C)C)C(=O)C1=O (stereo not given)

-58
-64.5

Please supply growth inhibition for each of the following items, keeping them in order.
1. CCC/C=N/NC(=O)c1ccc(OC)cc1
2. CCCCNc1ccc2c(C)c(Cc3ccccc3)c(=O)oc2c1
3. COc1cc(OC)c(N=Nc2c(N)nc(N)[nH]c2=O)cc1Cl
4. O=C(O)c1cccc(=O)o1
5. COc1cc2c(cc1OC)C(N)CC2=O (stereo not given)
6. CCOC(=O)CCC(NC(=O)c1ccc(NC)c([N+](=O)[O-])c1)C(=O)OCC (stereo not given)

1. -6.85
2. 20.3
3. 7.5
4. -11.3
5. -7.25
6. 11.4

Quick one: give me growth inhibition for each item below, same order please.
1. CCCCNc1nc2ccccc2c2c1ncn2CC(C)C
2. NC(=O)CCn1ccc2ccccc21
3. CC(C)(C)C(Br)CC(N)=O (stereo not given)
4. CC(=O)N1Cc2c(nc[nH]c2=O)C1C (stereo not given)
5. C1=Nc2ccccc2/C1=C/C=C/c1ccccc1
6. O=Cc1c2c(cc3c1CC1(C3)Cc3cc4c(c(C=O)c3C1)CCCC4)CCCC2

[14.1, 0, 2, -7.6, 28.3, 4.4]

====

Give measured growth inhibition for each item. Keep answers brief.
assay: NCI Yeast Anticancer Drug Screen. Data for the mlh1 rad18 strain (AID 175); conditions: S. cerevisiae mlh1 rad18 strain growth inhibition; at 50.0 µM; hits give high values
The panel holds about 79,000 compounds, 15% with a hit somewhere; the sample as a whole holds those more often.
Answers are plain numbers, in %.

Worked set:
c1ccc2c(c1)NCCOCCNc1ccccc1OCCNCCO2 :: 6.75
CC(C)(C)OC(=O)NC(Cc1ccc(OC(C)(C)C)cc1)C(=O)N[C@H]1CC[C@H](C(=O)O)C1 (stereo partly drawn) :: 10
C=CCNC(=S)/N=C/c1c(O)c2ccccc2oc1=O :: -46.9
O=C1CCC(C(Sc2ccccc2)(Sc2ccccc2)Sc2ccccc2)C1 (stereo not drawn) :: -41.4
CCOC(=O)CCCN(c1ccc(OC)c(OC)c1)S(=O)(=O)c1ccc(C)cc1 :: 34.2
CN1CCC2c3c([nH]c4ccccc34)C(C)(C)OC2C1 (stereo not drawn) :: 6.65
O=C1CCC(O)=C1O :: -0.25
CCOC(=O)N(C)Cc1ccc(Cl)cc1 :: 21.4
C=C1CC(CCCCCCC2CC(=C)C(=O)O2)OC1=O (stereo not drawn) :: -25.9
CCC(=O)Cc1cnccn1 :: -12.4

Okay, here is my list. What is growth inhibition for each of these?
1. CCCCNC(=O)C1C(=O)N(CCCC)C(=O)/C1=N\N (stereo not drawn)
2. COc1cc(S(N)(=O)=O)c(OC)cc1N
3. CC(C)(C)c1cc(C(=O)Nc2cc(Br)c(Br)cc2S(N)(=O)=O)cc(C(C)(C)C)c1O
4. CCN1c2ccccc2CC(CCN(C(C)C)C(C)C)(C(N)=O)c2ccccc21 (stereo not drawn)

1. 12.8
2. -10.1
3. 37.9
4. -0.9

Give me growth inhibition for each of these compounds, listed below.
1. CCc1cc(COC(C)=O)on1
2. Nc1ccc(C(C(=O)O)c2ccccc2)cc1 (stereo not drawn)
3. COC(=O)C1(C2CCCCCCC2=O)NC(=S)NC(=O)C1C#N (stereo not drawn)
4. COc1ccc(-c2cc(=O)c3c(OC)cccc3o2)c(OC)c1OC
5. CCOC(=O)CCC1(C(=O)OCC)CCCCC1=O (stereo not drawn)
6. CN=C(N)SCCCSC(N)=NC

1. -2.6
2. 10.9
3. -4.05
4. 9.8
5. -23.1
6. 8.5

Below is a list of compounds. For each, state its recorded growth inhibition.
1. Cc1ccc(/C(O)=C/C(=O)C(=O)NC23CC4CC(CC(C4)C2)C3)cc1
2. COc1ccc(OC)c(N=Cc2ccc(C=Nc3cc(OC)ccc3OC)cc2)c1
3. NC(CCCCO)C(=O)O (stereo not drawn)
4. CC12CC(O)C(C=C1c1ccccc1)C2(C)C (stereo not drawn)
5. CCCCCCCCCCCCCCCOc1cc(OC)ccc1-c1nnc(SC)s1

[23.4, -5.8, -15, 1.45, -5.7]

Could I get growth inhibition for every one of these entries?
1. c1ccc2c(c1)CCCN2c1nc(N2CCCC2)nc(N2CCOCC2)n1
2. COc1ccc(C2OC3=Nc4cc(C)c(C)cc4NC3C2=O)cc1OC (stereo not drawn)
3. CC1=NN(c2ccc([N+](=O)[O-])cc2)C(=O)C1
4. CCCCCSc1ncnc2c1ncn2CO
5. N#Cc1cc(-c2ccccc2)c[nH]c1=O
6. O=C1NC2NC(=O)NC2N1 (stereo not drawn)
7. O=C(Nc1ccccc1)Nc1ccc(-c2ccccc2)cc1

-8.25
1.9
36.9
3.6
-1.55
10.2
3.5

Below are 4 compounds. Give each one its growth inhibition.
1. COC(=O)CCN(CCC(=O)OC)C1CC1
2. C(#CC(Sc1ccccc1)=C(Sc1ccccc1)Sc1ccccc1)Sc1ccccc1
3. O=C1Oc2ccccc2CC1C(=O)c1ccc(Cl)cc1 (stereo not drawn)
4. COC(=O)C1=C(C(=O)OC)N(C(C)C)[C@H]2C(C(=O)OC)=C(C(=O)OC)N(C(C)C)[C@@H]12

[-20.4, -6.25, 7.75, 13.3]

For each of the items listed, what is its growth inhibition?
1. CC1(C)OB(O)OC1(C)C
2. CCCCN(CCCC)C(C)=O

1. -9.7
2. -8.2

Would you mind listing growth inhibition for each of the following compounds?
1. N#CC1C[C@@H]2CC3(CCC2CN1C(=O)c1ccccc1)OCCO3 (stereo partly drawn)
2. CCC(C)Nc1ncnc2c1cnn2C (stereo not drawn)
3. CC(O)CCC(O)CCCO (stereo not drawn)
4. CCOC(=O)CCN(CCC(=O)OCC)Cc1cc(Cl)c2cccnc2c1O
5. COc1ccc2c(c1)CCC1C(=O)NN=C21 (stereo not drawn)

1. -14
2. -10.9
3. -11.7
4. 97.8
5. -8
